Source listed as the supplement of paper PMC8671470.

- Test system: myeloid leukemia patient primary cells Pat.8
- Protocol: cell viability (% survival relative to DMSO control); higher = less cytotoxic
- Settings: 1000 nM; 72 h
Counter-ions that a name gives are not always drawn.
Assign labels as follows, please: 1.0 for cell viability below 80%; 0.0 for cell viability equal to or exceeding 80%.

Worked examples, 3 molecules total:
Molecule | Experimental System | Assigned Label
O=C(Cc1cccc(OC(F)(F)F)c1)Nc1ccc(CCCCc2nnc(NC(=O)Cc3ccccn3)s2)nn1 [CB-839] | myeloid leukemia patient primary cells Pat.8 | 0.0
O=C(CCl)N(CCCNC(=O)C(F)(F)F)c1ccc([N+](=O)[O-])cc1 [ML-175] | myeloid leukemia patient primary cells Pat.8 | 1.0
CCC(CC#N)OC(=O)N[C@@H](C)c1cccc(NC(=O)Nc2ccc(-c3cnco3)c(OC)c2)c1 (stereo in doubt) [AVN-944] | myeloid leukemia patient primary cells Pat.8 | 1.0

Query: Bench note: check whether O=C(/C=C/c1cccnc1)NCCCCC1CCN(C(=O)c2ccccc2)CC1 [Daporinad] shows cell viability below 80%
Reply: 1.0

Query: Bench note: check whether CCCCCCCCCCCCC/C=C/[C@@H](O)[C@H](CO)N(C)C [N,N-Dimethylsphingosine] shows cell viability below 80%
Reply: 0.0

Query: Bench note: check whether CC(C)(Cc1ccccc1)NCC(O)c1ccc(O)c(NS(C)(=O)=O)c1 (stereo not drawn) [Zinterol hydrochloride] shows cell viability below 80%
Reply: 0.0

Query: Bench note: check whether Clc1cc(Cl)c(OCC#CI)cc1Cl [Haloprogin] shows cell viability below 80%
Reply: 1.0
